system_tested: T1, Dam1 (budding yeast, UniProt P53267 1-343)
T1 construct: Dam1, subunit of the budding yeast Dam1 complex; Subunit inside the recombinant 10-subunit complex; also called Dam1 subunit; source: expressed and purified as part of the Dam1 complex as described [3]
T1 sequence (looked up): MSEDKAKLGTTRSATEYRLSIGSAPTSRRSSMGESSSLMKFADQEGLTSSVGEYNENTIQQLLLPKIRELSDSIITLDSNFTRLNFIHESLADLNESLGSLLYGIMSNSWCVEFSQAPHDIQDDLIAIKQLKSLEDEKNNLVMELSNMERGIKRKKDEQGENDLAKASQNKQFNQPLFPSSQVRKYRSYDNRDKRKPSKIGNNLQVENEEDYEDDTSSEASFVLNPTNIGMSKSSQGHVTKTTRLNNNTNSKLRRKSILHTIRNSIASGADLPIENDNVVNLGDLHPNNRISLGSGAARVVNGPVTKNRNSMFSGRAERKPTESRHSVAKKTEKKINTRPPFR
assay_text: cross-linking; BS3, Dam1 complex at 0.3 mg/ml in BRB80, room temperature 40-60 min, digested in solution, mass spectrometry; some links may be between oligomerizing complexes
measurement_parameters: both partners purified
endpoint: binding result

Spc19 (natural protein, budding yeast, UniProt Q03954 1-165, looked up, Spc19, subunit of the budding yeast Dam1 complex; Subunit inside the recombinant 10-subunit complex; also called Sp19; source: expressed and purified as part of the Dam1 complex as described [3]) MTDALEQSVLALEGTVSVLKDSVESLKCANEPSTNLASTMLQTKRVFRLVPEYDVERSKLDLIEEVEPLVRTLGDKLRKSMGRMQRELDTLQQTYELNDLRLKKNISMDDDDALNSPDMGQEYEGRDADDVVMMASSTNEELEELKKLKEKKKQLENKLEILKQK
binds
Spc34 (natural protein, budding yeast, UniProt P36131 1-295, looked up, Spc34, subunit of the budding yeast Dam1 complex; Subunit inside the recombinant 10-subunit complex; source: expressed and purified as part of the Dam1 complex as described [3]) MGESLDRCIDDINRAVDSMSTLYFKPPGIFHNAILQGASNKASIRKDITRLIKDCNHDEAYLLFKVNPEKQSVSRRDGKEGVFDYVIKRDTDMKRNRRLGRPGEKPIIHVPKEVYLNKDRLDLNNKRRRTATTSGGGLNGFIFDTDLIGSSVISNSSSGTFKALSAVFKDDPQIQRLLYALENGSVLMEEESNNQRRKTIFVEDFPTDLILKVMAEVTDLWPLTEFKQDYDQLYHNYEQLSSKLRFIKKEVLLQDDRLKTMSQYHPSSSHDVAKIIRKEKDEIRRLEMEIANLQE
binds
Dad2 (natural protein, budding yeast, UniProt P36162 1-133, looked up, Dad2, subunit of the budding yeast Dam1 complex; Subunit inside the recombinant 10-subunit complex; source: expressed and purified as part of the Dam1 complex as described [3]) MDSIDEQIAIKRKELQSLQKITSLTDGLKIQLTELNEQIKEMGMNADSVAQLMNNWDSIINNISQASLGLLQYAEGDYEIGPWKDSKKKESEQSNETGLEAQENDKNDEDNDEDEDLVPLPETMVRIRVDGNE
binds

Source: paper PMC4821239
